inhibition at 1 µM values for the compounds below.
# MEASUREMENT TARGET: TrkA(h) (Homo sapiens, UniProt P04629)
# Construct: purchased Millipore (KinaseProfiler Service)
# Sequence (P04629 33-796): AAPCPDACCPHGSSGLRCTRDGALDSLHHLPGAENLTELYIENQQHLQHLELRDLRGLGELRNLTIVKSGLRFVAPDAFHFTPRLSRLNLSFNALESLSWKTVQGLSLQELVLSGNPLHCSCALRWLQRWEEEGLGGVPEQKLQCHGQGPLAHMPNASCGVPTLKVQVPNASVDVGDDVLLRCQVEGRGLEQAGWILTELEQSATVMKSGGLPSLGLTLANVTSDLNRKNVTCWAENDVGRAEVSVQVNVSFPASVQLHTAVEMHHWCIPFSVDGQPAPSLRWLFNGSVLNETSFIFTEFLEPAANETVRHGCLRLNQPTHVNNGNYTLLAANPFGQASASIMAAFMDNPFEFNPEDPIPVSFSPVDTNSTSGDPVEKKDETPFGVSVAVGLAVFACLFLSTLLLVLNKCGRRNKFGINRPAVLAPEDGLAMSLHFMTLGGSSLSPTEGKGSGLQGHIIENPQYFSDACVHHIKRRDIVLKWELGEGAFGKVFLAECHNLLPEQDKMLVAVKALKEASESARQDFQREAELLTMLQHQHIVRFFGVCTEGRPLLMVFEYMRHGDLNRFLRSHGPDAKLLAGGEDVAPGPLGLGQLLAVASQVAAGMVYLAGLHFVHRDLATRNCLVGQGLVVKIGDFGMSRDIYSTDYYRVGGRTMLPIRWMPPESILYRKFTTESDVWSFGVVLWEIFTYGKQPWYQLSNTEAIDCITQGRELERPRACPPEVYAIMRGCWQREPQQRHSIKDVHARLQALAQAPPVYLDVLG
# PROCEDURE DETAILS: KinaseProfiler (Millipore) radiometric kinase assay, TrkA(h)
# Assay type: biochemical
# ASSAY CONDITIONS: compound concentration 1 μM
REPORTED METRIC: inhibition at 1 µM (%)

[[record]]
compound = "CC(Nc1cc(Nc2cc(C3CC3)[nH]n2)ncn1)c1c(F)cccc1F (single isomer, unassigned) [Example 30]"
val = 100

[[record]]
compound = "C[C@H](Nc1ncnc(Nc2cc(C3CC3)[nH]n2)c1C#N)c1ccc(F)cc1 [Example 26]"
val = 49

[[record]]
compound = "Cc1c(Nc2cc(C3CC3)[nH]n2)ncnc1N[C@@H](C)c1ccc(F)cc1 [Example 24]"
val = 31

[[record]]
compound = "C[C@H](Nc1ncnc(Nc2cc(C3CC3)[nH]n2)n1)c1ccc(F)cc1Cl [Example 59]"
val = 100

[[record]]
compound = "CC(Nc1cc(Nc2cc(C3CC3)[nH]n2)ncn1)c1ccc(F)cc1F (centres unmarked) [Example 32]"
val = 104

[[record]]
compound = "C[C@@H](Nc1cc(Nc2cc(C3CC3)[nH]n2)ncn1)c1ccc(F)cc1F [Example 33]"
val = 60

[[record]]
compound = "CN1CCN(c2ccc(CNc3ncnc(Nc4cc(C5CC5)[nH]n4)c3C#N)cc2)CC1 [Example 29]"
val = -5

[[record]]
compound = "CCCc1cc(Nc2cc(NC(C)c3ccc(F)cc3F)ncn2)n[nH]1 (centres unmarked) [Example 51]"
val = 100


---

# MEASUREMENT TARGET: TrkA(h) (Homo sapiens, UniProt P04629)
# Construct: purchased Millipore (KinaseProfiler Service)
# PROCEDURE DETAILS: KinaseProfiler (Millipore) radiometric kinase assay, TrkA(h)
# Format: biochemical
# ASSAY CONDITIONS: compound concentration 1 μM
REPORTED METRIC: inhibition at 1 µM (%)

[[record]]
compound = "CN(C)CC(Nc1cc(Nc2cc(C3CC3)[nH]n2)ncn1)c1ccccc1 (centres unmarked)"
measurement_target = "TrkA(h) (Homo sapiens, UniProt P04629)"
val = 67

[[record]]
compound = "OCC(Nc1cc(Nc2cc(C3CC3)[nH]n2)ncn1)c1ccc(F)cc1 (centres unmarked)"
measurement_target = "TrkA(h) (Homo sapiens, UniProt P04629)"
val = 101

[[record]]
compound = "C[C@H](Nc1ncnc(Nc2cc(C3CC3)[nH]n2)n1)c1ccc(F)cc1F"
measurement_target = "TrkA(h) (Homo sapiens, UniProt P04629)"
val = 100

[[record]]
compound = "C[C@H](Nc1cc(Nc2cc(C3CC3)[nH]n2)ncn1)c1ccc(F)cc1"
measurement_target = "TrkA(h) (Homo sapiens, UniProt P04629)"
val = 99

[[record]]
compound = "CCn1nc(Nc2cc(NC(C)c3ccc(F)cc3F)ncn2)cc1C1CC1 (centres unmarked)"
measurement_target = "TrkA(h) (Homo sapiens, UniProt P04629)"
val = 10

